- System: T-type Ca^2+ channels
- PROTOCOL_SUMMARY: Whole-cell recording of T-type Ca2+ currents in differentiated ND7/23 cells
- Assay type: cell-based, mouse neuroblastoma and rat dorsal root ganglion cells
- SETUP_CONDITIONS: differentiated ND7/23 cells; read-out: IC50 on T-type Ca2+ current densities
- Protocol: ND7/23 cells are derived from the fusion of mouse neuroblastoma and rat dorsal root ganglion cells, which generates a more homogeneous sensory neuron-like cell population. ND7/23 cells were purchased from Sigma-Aldrich (RRID:CVCL_4259). […] Whole cell recordings were performed as previously described. […] To assess drug-evoked changes on specific ionic conductances, current amplitudes were expressed as current densities as previously reported. […]

# COMPOUND, IC50, µM
measured = [
    ("CC1CC(=O)C=C(NC(=O)c2cc(C(F)(F)F)cc(C(F)(F)F)c2)C1 (stereo not shown)", 10.6),
]
